- system under test: T1, CRBN, Q96SW2;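 note: pooled lentiviral library of zinc finger degron-EGFP fusions in mCherry-positive Jurkat cells, FACS-sorted after compound exposure, with degron abundance counted by next-generation sequencing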
- T1 chain: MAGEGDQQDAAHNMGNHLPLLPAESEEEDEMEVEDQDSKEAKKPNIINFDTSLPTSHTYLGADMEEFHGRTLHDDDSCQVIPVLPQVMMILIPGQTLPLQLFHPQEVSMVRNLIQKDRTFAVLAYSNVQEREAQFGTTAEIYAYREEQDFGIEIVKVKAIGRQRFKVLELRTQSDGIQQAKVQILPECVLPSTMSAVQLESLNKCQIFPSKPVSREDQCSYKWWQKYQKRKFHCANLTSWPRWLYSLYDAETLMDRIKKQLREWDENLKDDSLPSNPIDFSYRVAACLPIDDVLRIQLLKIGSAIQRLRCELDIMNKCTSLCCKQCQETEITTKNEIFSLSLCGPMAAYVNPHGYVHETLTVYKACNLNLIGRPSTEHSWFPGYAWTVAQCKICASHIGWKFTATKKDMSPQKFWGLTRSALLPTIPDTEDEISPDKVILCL
- experimental details: log2 fold change of degron read counts, EGFP-low vs EGFP+ sorted cells (limma voom), compound-induced degradation; higher = more compound-induced degradation of the degron-EGFP fusion; degrons are variants of IKZF1/3 zinc finger 2; compound dose not given here
- applied conditions: Jurkat; 18 h; compound: compound 33 (diphenyl IMiD analogue)
Whole data set: some 8,300 sequences, median “log2 fold change of degron read counts, EGFP-low vs EGFP+ sorted cells (limma voom), compound-induced degradation” near -1.1, cut for the highest 2% near 3.2. Only a selection was taken, and the highest values are over-represented in it overall.
Measured log2 fold change of degron read counts, listed per entry.
// no unit, no text: just the number

Use these answered entries as a reference point.
- chain: "FVCPVCGADFTQKGNLLRHIKL [46F_47V_49P_50V_52G_53A_54D_55F_67L_, Q9UKT9]"
  log2 fold change of degron read counts: 1
- chain: "FTCPVCGACFTQKGNLLRHIKL [46F_47T_49P_50V_52G_53A_54C_55F_67L_, Q9UKT9]"
  log2 fold change of degron read counts: 2.73
- chain: "FDCPICGRVFTQKGNLLRHIKL [46F_47D_49P_50I_52G_53R_54V_55F_67L_, Q9UKT9]"
  log2 fold change of degron read counts: 1.53
- chain: "FVCPVCGALFTQKGNLLRHIKL [46F_47V_49P_50V_52G_53A_54L_55F_67L_, Q9UKT9]"
  log2 fold change of degron read counts: 1.26
- chain: "FNCDVCGAHFTQKGNLLRHIKL [46F_47N_49D_50V_52G_53A_54H_55F_67L_, Q9UKT9]"
  log2 fold change of degron read counts: -1.95
- chain: "FFCPVCGALFTQKGNLLRHIKL [46F_47F_49P_50V_52G_53A_54L_55F_67L_, Q9UKT9]"
  log2 fold change of degron read counts: 1.45

Now turn to the next sequence.
Query: For the sequence shown here, LTCEICGFDCTQKGNLLRHIKL [46L_47T_49E_50I_52G_53F_54D_55C_67L_, Q9UKT9] , give the reported log2 fold change of degron read counts.
Response: -2.79
